Below are compounds with their MIC as measured on Herpes simplex virus-2 (G).
Give a bare numeral; the unit mg/L is implied.

>>> result("COc1ccc2[nH]c3c(c2c1)CCN1OCSCC(N)C31 [Compound 67, (1S,13bS)-5-methoxy Eudistomin L]")
0.012

Request: Return MIC (reported value) for this compound: N[C@@H]1CSCON2CCc3c([nH]c4ccccc34)[C@H]12 [Compound 63, (1S.13bS)-debromo Eudistomin L]
Response: 0.2
